# Test system: AM2 receptor (CALCRL+RAMP3) (Homo sapiens, UniProt O60896+Q16602)
# Construct: host or cells: 1321N1
# Sequence (Q16602 23-461): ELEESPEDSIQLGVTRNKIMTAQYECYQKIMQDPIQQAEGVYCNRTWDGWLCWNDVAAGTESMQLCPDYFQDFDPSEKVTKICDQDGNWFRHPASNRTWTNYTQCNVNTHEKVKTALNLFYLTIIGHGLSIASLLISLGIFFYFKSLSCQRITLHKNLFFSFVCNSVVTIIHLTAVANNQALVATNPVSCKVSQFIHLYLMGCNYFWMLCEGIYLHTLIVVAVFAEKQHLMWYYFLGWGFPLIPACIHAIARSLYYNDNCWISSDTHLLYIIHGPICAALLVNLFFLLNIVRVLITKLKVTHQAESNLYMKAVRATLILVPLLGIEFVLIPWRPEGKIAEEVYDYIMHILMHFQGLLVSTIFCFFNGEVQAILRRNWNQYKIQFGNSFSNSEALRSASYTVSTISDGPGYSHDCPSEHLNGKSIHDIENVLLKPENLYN
# Sequence (O60896 24-148): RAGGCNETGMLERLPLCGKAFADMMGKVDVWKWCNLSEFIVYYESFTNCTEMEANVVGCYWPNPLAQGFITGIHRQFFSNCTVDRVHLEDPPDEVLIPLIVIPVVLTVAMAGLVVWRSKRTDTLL
# Assay method text: AM2 receptor inhibition, LANCE TR-FRET cAMP agonist-antagonist competition assay
# Assay type: cell-based
# Run parameters: inhibition of AM induced cAMP activation; 1321N1 cells transfected with CALCRL+RAMP3; read-out: AM2 pIC50 (converted)
Measured attribute: IC50 (µM)

1) CNCc1cc(F)ccc1CN(CC(=O)Nc1ccc2c(c1)CC1(C2)C(=O)Nc2ncccc21)C(=O)C(C)(C)C (stereo not shown) [Example 55]; 0.00977
2) CNCc1ccccc1CN(CC(=O)Nc1ccc2c(c1)CC1(C2)C(=O)Nc2ncccc21)C(=O)c1csc(C)n1 (stereo not shown) [Example 61]; 0.219
3) CC(=N)NCc1ccccc1CN(CC(=O)Nc1ccc2c(c1)CC1(C2)C(=O)Nc2ncccc21)C(=O)C(C)(C)C (stereo not shown) [Example 42]; 0.135
4) CNCc1ccccc1CN(CC(=O)Nc1ccc2c(c1)CC1(C2)C(=O)Nc2ncccc21)C(=O)C12CC(N)(C1)C2 (stereo not shown) [Example 77, bis(2,2,2-trifluoroacetate)]; 0.0447
